Hi there, I'd appreciate the recorded normalized growth for every entry that follows.
- Assay Remarks: chemical genetic growth profiling, strain panel (AID 1159580);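 further: tested at 20 µM; growth read once vehicle control cultures reached saturation at 30 °C; 1 = growth at the plate median or of vehicle wells; lower values mean less growth of the strain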
- Experimental Setup: S. cerevisiae deletion strains, growth OD, locus YNL128W, strain TEP1, active compounds read low
Among all 5,500 compounds or so, about 2,000 (36%) were called active. Roughly 18% stayed inconclusive and do not appear here. This is one part of the list.
# respond with the number and nothing more

Inquiry: Data request, read-out normalized growth, for "O=C1CCCN1c1ccc(Cl)c(Cl)c1"
Reply text: 0.94

Inquiry: Data request, read-out normalized growth, for COc1c2c(cc3c1OCO3)C13C=C[C@H](OC)CC1N(C2)CC3O (some centres undefined)
Reply text: 0.985

Inquiry: Data request, read-out normalized growth, for "O=C(OC[C@H]1O[C@H](OC(=O)c2cc(O)c(O)c(OC(=O)c3cc(O)c(O)c(O)c3)c2)[C@H](OC(=O)c2cc(O)c(O)c(OC(=O)c3cc(O)c(O)c(O)c3)c2)[C@@H](OC(=O)c2cc(O)c(O)c(OC(=O)c3cc(O)c(O)c(O)c3)c2)[C@@H]1OC(=O)c1cc(O)c(O)c(OC(=O)c2cc(O)c(O)c(O)c2)c1)c1cc(O)c(O)c(OC(=O)c2cc(O)c(O)c(O)c2)c1"
Reply text: 0.0962

Inquiry: Data request, read-out normalized growth, for CN1C(=O)CCS(=O)(=O)C1c1ccc(Cl)cc1 (centres undefined)
Reply text: 1.03

Inquiry: Data request, read-out normalized growth, for "Cc1ccc(OCc2nnc(SCC(=O)c3ccc(F)cc3)n2-c2ccccc2)c2c1CCC2"
Reply text: 0.992

Inquiry: Data request, read-out normalized growth, for "COc1cc(O)cc(OC)c1OC"
Reply text: 1.07

Inquiry: Data request, read-out normalized growth, for NC1C[C@H]1c1ccccc1 (some centres undefined)
Reply text: 1.02

Inquiry: Data request, read-out normalized growth, for NC1CC1c1ccccc1 (centres undefined)
Reply text: 1.03

Inquiry: Data request, read-out normalized growth, for O=C1C=C(Cl)CC(c2ccc(C(F)(F)F)cc2)C1 (centres undefined)
Reply text: 0.987
